- System: SK-OV-3 ovarian
- test summary: NCI tumour cell line growth inhibition, 48 h
value kind: TGI

Consider the following illustrative entries.
compound	assay target	TGI
N#Cc1c(=N)cc2c3ccccc3oc3c(C#N)c(N)[nH]c1c32	SK-OV-3 ovarian	> 100 µM
O=S(=O)(Nc1cc(F)cc(F)c1)c1ccc(-c2cnc(C3CC3)o2)cc1	SK-OV-3 ovarian	42 µM
CC(CO)CCC(O)C(C)(O)C1CCC2(O)C3=CC(=O)C4CC(O)C(O)CC4(C)C3CCC12C (configuration not stated)	SK-OV-3 ovarian	> 100 µM
CCOC(=O)c1ccc(O)cc1	SK-OV-3 ovarian	> 100 µM
COc1ccc(-c2csc(=[N+]3CCCCC3)s2)cc1	SK-OV-3 ovarian	17.6 µM

Batch lookup, TGI per entry.
1. CCOC(=O)C(C(=O)OCC)C1C=CCC2c3ccccc3COCC21 (configuration not stated)
2. [N-]=[N+]=Nc1ncnc2c1sc(=S)n2-c1ccccc1
3. NC1(P(=O)(O)O)CCCCC1

Data returned:
["> 100 µM", "> 100 µM", "> 100 µM"]

====

Consider the following compounds; for each one, report its GI50.
- System: A549 NSCLC
- test summary: NCI tumour cell line growth inhibition, 48 h

compound	GI50
COc1cc2c(cc1OCCCCCN1CCN(CCCCCOc3cc4c(cc3OC)C(=O)C3CCC[C@H]3C=N4)CC1)N=C[C@@H]1CCCC1C2=O (stereo partly specified)	10.7 µM
CC[O-].CC[O-].CN(C)c1ccc([O-])cc1.CN(C)c1ccc([O-])cc1.[Ti+4]	54.4 µM

Batch lookup, GI50 per entry.
1. COc1ccc(/C=C/C(=O)Nc2cc(/C=C\c3cc(OC)c(OC)c(OC)c3)cc(OC)c2OC)cc1OC
2. Nc1c(C(=O)N/N=C/c2ccco2)cnn1-c1ccnc2c(C(F)(F)F)cccc12
3. CC[N-]c1nnnn1CC.[Au+].c1ccc([PH+](c2ccccc2)c2ccccc2)cc1
4. CCCCCCCCCCCCCCCC(=O)Nc1ccn([C@@H]2O[C@H](CO)[C@@H](O)[C@@H]2C#N)c(=O)n1

Data returned:
3.69 µM
> 100 µM
4.93 µM
11.7 µM

====

- Test system: SR leukemia
- test summary: NCI tumour cell line growth inhibition, 48 h
Consider the following molecules; for each one, report its TGI.

Consider the following illustrative entries.
molecule	TGI
COc1ccc(C2NC(=O)c3cc4c(cc3N2)OCO4)cc1 (centres undefined)	> 100 µM
CC(=O)Nc1ccc(C(=O)NN2C(=O)C(Cl)C2c2cc(Br)cc(Br)c2O)cc1 (centres undefined)	> 100 µM
COC(=O)[C@]12CC[C@@H](C)[C@H](C)[C@@H]1C1=CC[C@@H]3[C@@]4(C)C[C@@H](OC(C)=O)[C@H](O)[C@@](C)(CO)[C@@H]4[C@H](O)C[C@@]3(C)[C@]1(C)CC2	25.5 µM
O=C(CCC1CCCCC1)NCc1ccc(C(=O)O)cc1	> 100 µM
Cc1ccc(C(=O)N/N=C(\N=Nc2cccc(C)c2)c2ccc(N(CCC#N)CCC#N)cc2C)cc1	> 100 µM

Batch lookup, TGI per entry.
1. C#CCNCCCN1C(=O)c2ccc3c4c(ccc(c24)C1=O)C(=O)N(CCCNCC#C)C3=O
2. CN(C)c1nc2n(CCO)ccnc-2c(=O)n1
3. O=C1c2ccccc2S(=O)(=O)N1CSC(=S)N1CCOCC1

Data returned:
1: 1.04 µM; 2: > 100 µM; 3: 47 µM

Batch lookup, TGI per entry.
1. O=c1[nH]c(=O)n(C2CC(O)C(CO)O2)cc1/C=C/Br (centres undefined)
2. C[C@]12CCC(=O)C(O)=C1CCC2=O
3. CC(C)(C(=O)NCC(F)(F)C(F)(F)F)C(=O)N[C@@H]1C(=O)Nc2ccccc2-c2ccccc21
4. CCOP(=O)(OCC)C(C)(C)OC(=O)NC(F)(F)F
5. c1ccc(P2c3ccccc3Nc3ccccc32)cc1

Data returned:
["> 100 µM", "> 100 µM", "99 µM", "> 100 µM", "49.4 µM"]

Batch lookup, TGI per entry.
1. CCOC(=O)c1cc2c([nH]1)c(OC(C)=O)cc1c2ccn1Cc1ccccc1
2. COC(=O)C1(CCC(=O)N(C)c2ccccc2)NNC2C(=O)N(c3ccccc3)C(=O)C21 (centres undefined)
3. CC(NC(=O)OC(C)(C)C)C(=O)NC1CCCC1 (centres undefined)
4. O=C1OC(Cl)C(N=P(c2ccccc2)(c2ccccc2)c2ccccc2)=C1Cl (centres undefined)

Data returned:
> 100 µM
> 10 µM
> 100 µM
> 100 µM

Batch lookup, TGI per entry.
1. COc1cc2c(cc1OCCCCCN1CCN(CCCCCOc3cc4c(cc3OC)C(=O)C3CCC[C@H]3C=N4)CC1)N=C[C@@H]1CCCC1C2=O (some centres undefined)
2. COc1ccc2nc3c(n2c1)C(=O)C(=O)c1ccccc1-3

Data returned:
1: 39.6 µM; 2: 6.59 µM

Batch lookup, TGI per entry.
1. COc1ccc(C2=Cc3nc2c(-c2ccccc2)c2ccc([nH]2)c(-c2ccccc2)c2nc(c(-c4ccccc4)c4ccc([nH]4)c3-c3ccccc3)C=C2)cc1
2. O=C(Nc1ccccc1C(=O)N/N=C(\c1ccccc1)c1ccccn1)c1ccccc1
3. Cc1cccc(-n2cnc3cc(C(=O)N4CCCCC4)ccc32)c1

Data returned:
1. > 100 µM
2. > 100 µM
3. > 100 µM

Batch lookup, TGI per entry.
1. CCOC(=O)C(/C(=N/NC(=O)OC)C(=O)Nc1ccc(C(C)=O)cc1)c1cnc2ccccc2n1 (centres undefined)
2. NC1(P(=O)(O)O)CCCCC1

Data returned:
["> 100 µM", "> 100 µM"]

====

- Test system: SF-539 CNS
- test summary: NCI tumour cell line growth inhibition, 48 h
value kind: TGI

compound	TGI
CCCCCC[n+]1noc(N)c1-c1ccc(-c2c(N)on[n+]2CCCCCC)cc1	3.42 µg/mL
O=C(OC1C(Oc2ccccc2COC(=O)C2(O)C=CCCC2=O)OC(CO)C(O)C1O)c1ccccc1 (stereo not drawn)	> 100 µM

We now examine a further compound.
Data request: Quick check: TGI of `COc1ccc(CCc2nc3cc(-c4c(C)noc4C)ccc3n2CCN2CCOCC2)cc1` ?
Data returned: > 100 µM

====

- Test system: DMS 114 small cell lung
- test summary: NCI tumour cell line growth inhibition, 48 h
value kind: TGI

molecule	TGI
CN(C)N=Nc1cn[nH]c1C(N)=O	> 100 µM

Batch lookup, TGI per entry.
1. CCOC(=O)c1ccc(N=Cc2ccc(N(CCC#N)CCC#N)cc2)cc1
2. O=C(Nc1cc(Cl)c(Cl)cc1Cl)C(=O)C(C(=O)c1ccccc1)C1OC(=O)c2ccccc21 (stereo not drawn)

Data returned:
1: > 100 µM; 2: > 100 µM

====

- System: CCRF-CEM leukemia
- test summary: NCI tumour cell line growth inhibition, 48 h
value kind: TGI

molecule	TGI
Cc1ccc2c(/C=C/c3ccc(N(C)C)cc3)ccnc2c1C	> 100 µM
O=C1c2ccccc2CC12CCC1(CC2)OCCO1	> 100 µM
CCOC(=O)c1ccc(N=Cc2ccc(N(CCC#N)CCC#N)cc2)cc1	> 100 µM
N#Cc1c(=N)cc2c3ccccc3oc3c(C#N)c(N)[nH]c1c32	> 100 µM
[N-]=[N+]=Nc1cccc(-c2n[nH]c(Cl)cc2=O)c1	> 100 µM
CN1CCN(Cc2nc3cccc4c3c([n+]2[O-])-c2ccccc2-4)CC1	> 82.8 µM
COc1ccc(/C=C/C(=O)c2sc(Nc3ccc([N+](=O)[O-])cc3)nc2C)cc1	82 µM
CO/C(=N\N=C\c1ccccc1F)c1ccncc1	> 10 µM

Batch lookup, TGI per entry.
1. CN(C)c1nc2n(CCO)ccnc-2c(=O)n1
2. CC1(c2ccc(Cl)cc2)NC(=NCCO)c2ccccc21 (centres undefined)
3. O=S(=O)(Nc1nc2ccccc2n1S(=O)(=O)c1ccccc1)c1ccccc1
4. CCOC(=O)C1C(c2ccc3c(c2)OCO3)c2c([nH][nH]c2=O)CC1(O)OCC (centres undefined)
5. CCOC(=O)c1ccc(O)cc1
6. COc1ccc2c(c1)C(=O)C1(C2)[C@H](c2ccccc2)C2C(=O)c3cc(OC)ccc3C2[C@H]1c1ccccc1 (some centres undefined)

Data returned:
1: > 100 µM; 2: 24.2 µM; 3: 73.8 µM; 4: > 100 µM; 5: > 100 µM; 6: > 100 µM

====

- Tested on: SN12C renal
- test summary: NCI tumour cell line growth inhibition, 48 h
Where a SMILES comes first, the peptide text is derived from it.
value kind: TGI

compound	TGI
COc1ccc(/C=C2\C(=O)NC(=O)c3ccccc32)cc1OC	> 100 µM
COC(=O)Nc1nc2ccc(NS(=O)(=O)c3ccc(Cl)cc3)cc2[nH]1	72.3 µM

Batch lookup, TGI per entry.
1. CCC(C)C1NC(=O)C(CCCCN)NC(=O)C(CCCCN)NC(=O)C(CC(C)C)NC(=O)C(CCCCN)NC(=O)C(C(C)CC)NC(=O)C(C(C)C)NC(=O)C(C(C)CC)NC(=O)C(CCCCN)NC(=O)C(CCCCN)NC(=O)C(C)NC(=O)C(CCCCN)NC(=O)C(CC(C)C)NC1=O (configuration not stated) (cyclo(AKKIVIKLKKILK); configuration not given here)
2. CN1CCC(CN2c3ccccc3Sc3ccccc32)C1 (configuration not stated)
3. C=C1CC[C@]2(C)[C@H](CC[C@@]34C[C@@H](CC[C@H]32)[C@@H](C(=O)O)C4)C1(C)C
4. COc1ccc(CCc2nc3cc(-c4c(C)noc4C)ccc3n2CCN2CCOCC2)cc1
5. CCCCNC(=O)OCCN=C1c2ccccc2C(Br)C(Br)c2ccccc21 (configuration not stated)

Data returned:
1: 6.46 µM; 2: 29.1 µM; 3: > 12.5 µM; 4: > 100 µM; 5: > 100 µM

Batch lookup, TGI per entry.
1. CCOC(=O)C1=C(C)N2CCOC2(C)C(C(=O)OC)C1c1cccc(Cl)c1 (configuration not stated)
2. O=C(O)C(CCc1ccccc1)N1C(=O)c2ccccc2C1=O (configuration not stated)
3. CCCCCCCCCCCCCCCC(=O)Nc1ccn([C@@H]2O[C@H](CO)[C@@H](O)[C@@H]2C#N)c(=O)n1
4. COc1ccc2c(c1)C(=O)C1(C2)[C@H](c2ccccc2)C2C(=O)c3cc(OC)ccc3C2[C@H]1c1ccccc1 (some centres not stated)
5. CC(=O)OC1COC(n2nc(N)nc2C)C(OC(C)=O)C1OC(C)=O (configuration not stated)
6. C#CC#CC#CC#CC#CC#CC#CC#CC[C@@H]1OC[C@H](COC(=O)O[C@@H](C(=O)O[C@H]2C[C@@]3(O)[C@@H](OC(=O)c4ccccc4)[C@@H]4[C@]5(OC(C)=O)CO[C@@H]5C[C@H](O)[C@@]4(C)C(=O)[C@H](OC(C)=O)C(=C2C)C3(C)C)[C@@H](NC(=O)c2ccccc2)c2ccccc2)O1

Data returned:
> 100 µM
> 100 µM
> 100 µM
> 100 µM
> 100 µM
> 25 µM

Batch lookup, TGI per entry.
1. COC(=O)c1ccc(C2SC(C)C(=O)N2NC(=O)C(O)c2ccccc2)cc1 (configuration not stated)
2. CC1(c2ccc(Cl)cc2)NC(=NCCO)c2ccccc21 (configuration not stated)
3. COc1ccc(NC(=S)N/N=C(\c2ccccc2)c2ccccn2)cc1
4. Cc1ccc(S(=O)(=O)NC2CCCCO2)cc1 (configuration not stated)

Data returned:
1: > 100 µM; 2: > 100 µM; 3: 7.24 µM; 4: > 100 µM
